system: OVCAR-4; experiment: NCI tumour cell line growth inhibition, 48 h
The source made the active and inactive calls. Rule as the data show it: active = GI50 up to about 1.1 µM and inactive = higher.
GI50 values by entry
readout-type: GI50

compound=Cc1cc2c(c(C(=O)NCC(=O)N[C@@H](C)C(=O)OCc3ccccc3)c1)Oc1c(cc(C)cc1C(=O)NCC(=O)N[C@@H](C)C(=O)OCc1ccccc1)S2 readout_type=GI50 result_value="> 100 µM (inactive)"
compound="CCOC(=O)C1C(c2cc(OC)c(O)c(OC)c2)c2cc3c(cc2OC1(C)O)OCO3 (stereo unspecified)" readout_type=GI50 result_value="57.8 µM (inactive)"
compound=CN(C)CCN(C)P12(Oc3ccccc3O1)Oc1c(Cl)c(Cl)c(Cl)c(Cl)c1O2 readout_type=GI50 result_value="33.5 µM (inactive)"
compound=CC(C)=CCc1c(O)ccc2ccc(=O)oc12 readout_type=GI50 result_value="37.8 µM (inactive)"
compound=CS(=O)(=O)c1nc(-c2cc3c(c(S(C)(=O)=O)n2)CCC3)cc2c1CCCC2 readout_type=GI50 result_value="> 100 µM (inactive)"
compound=CCOP(=O)(OCC)Oc1c(OC)c2[nH]c(C(=O)OC)cc2c2c(C(=O)O)c[nH]c12 readout_type=GI50 result_value="> 100 µM (inactive)"
compound=NCP(=O)(O)OCC(=O)O readout_type=GI50 result_value="> 100 µM (inactive)"
compound="C/C(=N\\NS(=O)(=O)c1ccc(C)cc1)C(CN(C)C)C(c1ccccc1)c1c(O)c2ccccc2oc1=O (stereo unspecified)" readout_type=GI50 result_value="> 100 µM (inactive)"
compound="O=C1c2c(O)cccc2C(C2OC(CO)C(O)C(O)C2O)c2cc(CO)cc(O)c21 (stereo unspecified)" readout_type=GI50 result_value="> 100 µM (inactive)"
compound=NC(=O)N/N=C(\Cc1nc2ccc(C(=O)c3ccccc3)cc2nc1O)C(=O)Nc1ccc(Br)cc1 readout_type=GI50 result_value="> 100 µM (inactive)"
compound=c1ccc(-c2cc(-c3cc(-c4ccccc4)no3)on2)cc1 readout_type=GI50 result_value="19.4 µM (inactive)"
